Kindly state CASOB preemergence herbicidal rating for each of the entries shown.
- Tested on: CASOB (Sicklepod)
- assay overview: Preemergence herbicidal evaluation
- Format: in vivo, Cassia obtusifolia
- condition label: rate 0.0625 kg/ha; rated 4-5 weeks after treatment
The response must contain the number and no unit.

(Q) So what does the record say about CASOB preemergence herbicidal rating for CCOC(=O)CN1C(=O)C2(CC2)SC1=Nc1cc(-n2c(=O)cc(C(F)(F)F)n(C)c2=O)c(F)cc1Cl [Compound 15] ?
(A) 0.5

(Q) So what does the record say about CASOB preemergence herbicidal rating for CCOC(=O)CN1C(=O)CN(C)C1=Nc1cc(-n2c(=O)cc(C(F)(F)F)n(C)c2=O)c(F)cc1Cl [Compound 25] ?
(A) 0.0

(Q) So what does the record say about CASOB preemergence herbicidal rating for CN(C)N1C(=O)CSC1=Nc1cc(-n2c(=O)cc(C(F)(F)F)n(C)c2=O)c(F)cc1Cl [Compound 23] ?
(A) 1.0

(Q) So what does the record say about CASOB preemergence herbicidal rating for CCOC(=O)CN1C(=O)CO/C1=N/c1cc(-n2c(=O)cc(C(F)(F)F)n(C)c2=O)c(F)cc1Cl [Compound 22] ?
(A) 0.0

(Q) So what does the record say about CASOB preemergence herbicidal rating for C=CCN1C(=O)CSC1=Nc1cc(N2C(=O)C3=C(CCCC3)C2=O)c(F)cc1Cl [Compound 2] ?
(A) 2.0

From: patent US20020137929A1
